Each record here notes measured Relative inhibitory effect (%) at 5.45 µM, wild type = 100%.
Molecular target: T1, factor XIIIa (human, UniProt P00488 39-732)
T1 sequence (looked up): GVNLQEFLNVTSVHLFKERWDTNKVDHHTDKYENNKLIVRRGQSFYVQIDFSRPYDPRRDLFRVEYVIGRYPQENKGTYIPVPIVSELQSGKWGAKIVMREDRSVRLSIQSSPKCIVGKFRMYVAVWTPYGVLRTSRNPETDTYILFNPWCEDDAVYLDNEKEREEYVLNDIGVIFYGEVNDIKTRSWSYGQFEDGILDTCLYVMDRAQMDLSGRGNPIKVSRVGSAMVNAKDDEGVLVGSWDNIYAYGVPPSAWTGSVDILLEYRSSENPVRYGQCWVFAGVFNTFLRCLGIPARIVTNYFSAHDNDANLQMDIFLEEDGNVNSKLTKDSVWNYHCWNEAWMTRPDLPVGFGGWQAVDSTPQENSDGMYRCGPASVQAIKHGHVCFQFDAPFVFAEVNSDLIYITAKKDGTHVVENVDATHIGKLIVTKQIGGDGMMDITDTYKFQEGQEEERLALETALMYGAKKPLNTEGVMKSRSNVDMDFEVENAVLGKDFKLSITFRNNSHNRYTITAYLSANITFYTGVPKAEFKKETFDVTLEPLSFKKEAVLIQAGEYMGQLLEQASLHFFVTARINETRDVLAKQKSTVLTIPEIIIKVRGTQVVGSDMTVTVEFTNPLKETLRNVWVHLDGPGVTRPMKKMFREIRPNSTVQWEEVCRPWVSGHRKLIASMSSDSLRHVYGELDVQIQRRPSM
Assay: cell-based or functional assay
property.measured: Relative inhibitory effect (%) at 5.45 µM, wild type = 100%

binder	unit.label	assay.result
modified tridegin H10A (protein, not shown: small tags and cut ends) MKLLPCKEWAQGIPNPRCWCGADLECAQDQYCAFIPQCRPRSELIKPMDDIYQRPVEFPNLPLKPREE	%	87
modified tridegin D50A, P55L (protein, not shown: small tags and cut ends) MKLLPCKEWHQGIPNPRCWCGADLECAQDQYCAFIPQCRPRSELIKPMDAIYQRLVEFPNLPLKPREE	%	84
modified tridegin Cys variant C06A (protein, not shown: small tags and cut ends) MKLLPAKEWHQGIPNPRCWCGADLECAQDQYCAFIPQCRPRSELIKPMDDIYQRPVEFPNLPLKPREE	%	72
recombinant wild-type tridegin polypeptide (SEQ ID No. 1) from Escherichia coli (protein, not shown: small tags and cut ends) MKLLPCKEWHQGIPNPRCWCGADLECAQDQYCAFIPQCRPRSELIKPMDDIYQRPVEFPNLPLKPREE	%	100
modified tridegin D50A (protein, not shown: small tags and cut ends) MKLLPCKEWHQGIPNPRCWCGADLECAQDQYCAFIPQCRPRSELIKPMDAIYQRPVEFPNLPLKPREE	%	53
modified tridegin I45A (protein, not shown: small tags and cut ends) MKLLPCKEWHQGIPNPRCWCGADLECAQDQYCAFIPQCRPRSELAKPMDDIYQRPVEFPNLPLKPREE	%	115
modified tridegin P65A (protein, not shown: small tags and cut ends) MKLLPCKEWHQGIPNPRCWCGADLECAQDQYCAFIPQCRPRSELIKPMDDIYQRPVEFPNLPLKAREE	%	51
modified tridegin G12A (protein, not shown: small tags and cut ends) MKLLPCKEWHQAIPNPRCWCGADLECAQDQYCAFIPQCRPRSELIKPMDDIYQRPVEFPNLPLKPREE	%	97
modified tridegin K07A (protein, not shown: small tags and cut ends) MKLLPCAEWHQGIPNPRCWCGADLECAQDQYCAFIPQCRPRSELIKPMDDIYQRPVEFPNLPLKPREE	%	90
modified tridegin Cys variant C32A (protein, not shown: small tags and cut ends) MKLLPCKEWHQGIPNPRCWCGADLECAQDQYAAFIPQCRPRSELIKPMDDIYQRPVEFPNLPLKPREE	%	86
modified tridegin F34A (protein, not shown: small tags and cut ends) MKLLPCKEWHQGIPNPRCWCGADLECAQDQYCAAIPQCRPRSELIKPMDDIYQRPVEFPNLPLKPREE	%	96
modified tridegin Cys variant C26A (protein, not shown: small tags and cut ends) MKLLPCKEWHQGIPNPRCWCGADLEAAQDQYCAFIPQCRPRSELIKPMDDIYQRPVEFPNLPLKPREE	%	82
modified tridegin R39A (protein, not shown: small tags and cut ends) MKLLPCKEWHQGIPNPRCWCGADLECAQDQYCAFIPQCAPRSELIKPMDDIYQRPVEFPNLPLKPREE	%	49
modified tridegin N60A (protein, not shown: small tags and cut ends) MKLLPCKEWHQGIPNPRCWCGADLECAQDQYCAFIPQCRPRSELIKPMDDIYQRPVEFPALPLKPREE	%	68
modified tridegin M48A (protein, not shown: small tags and cut ends) MKLLPCKEWHQGIPNPRCWCGADLECAQDQYCAFIPQCRPRSELIKPADDIYQRPVEFPNLPLKPREE	%	91
modified tridegin Cys variant C26A; +C38A (protein, not shown: small tags and cut ends) MKLLPCKEWHQGIPNPRCWCGADLEAAQDQYCAFIPQARPRSELIKPMDDIYQRPVEFPNLPLKPREE	%	80
